The reported numbers originate from paper PMC10488051.

For each of the compounds below, state its Kd.
- targetOrSystem: SARS-CoV-2 PL^pro (Severe acute respiratory syndrome coronavirus 2)
- protocolDescription: PL^pro enzymatic inhibition assay (FRET-based, Z-RLRGG-AMC substrate)
- Type: biochemical
- conditionLabel: Table 1 thiazole series; enzymatic inhibition assay, 25 °C, pH 7.5; uncertainty approx. 1.8-fold of Kd

Recorded Kd, per entry:
Nc1ccc(N(CCC(=O)O)c2nc(-c3ccc(C(F)(F)F)cc3)cs2)cc1 [Compound 30d]: ≥ 50 µM
O=C(O)CCN(c1nc(-c2ccc(Cl)cc2)cs1)c1cccc2ccccc12 [Compound 6b]: ≥ 50 µM
O=C(O)CCN(c1nccs1)c1cccc2ccccc12 [Compound 3]: 14 µM
O=C(O)CCN(C1=NC(=O)/C(=C/c2ccc(F)cc2)S1)c1cccc2ccccc12 [Compound 13c]: 8.6 µM

Please look at the following compound next.
In one line, give reported Kd of the entry O=C(O)CCN(c1nc(CO)cs1)c1cccc2ccccc12 [Compound 10] .
35 µM
